For UniProt:P48736, measured IC50 is reported for the entries below.
Sequence (P48736 whole entry): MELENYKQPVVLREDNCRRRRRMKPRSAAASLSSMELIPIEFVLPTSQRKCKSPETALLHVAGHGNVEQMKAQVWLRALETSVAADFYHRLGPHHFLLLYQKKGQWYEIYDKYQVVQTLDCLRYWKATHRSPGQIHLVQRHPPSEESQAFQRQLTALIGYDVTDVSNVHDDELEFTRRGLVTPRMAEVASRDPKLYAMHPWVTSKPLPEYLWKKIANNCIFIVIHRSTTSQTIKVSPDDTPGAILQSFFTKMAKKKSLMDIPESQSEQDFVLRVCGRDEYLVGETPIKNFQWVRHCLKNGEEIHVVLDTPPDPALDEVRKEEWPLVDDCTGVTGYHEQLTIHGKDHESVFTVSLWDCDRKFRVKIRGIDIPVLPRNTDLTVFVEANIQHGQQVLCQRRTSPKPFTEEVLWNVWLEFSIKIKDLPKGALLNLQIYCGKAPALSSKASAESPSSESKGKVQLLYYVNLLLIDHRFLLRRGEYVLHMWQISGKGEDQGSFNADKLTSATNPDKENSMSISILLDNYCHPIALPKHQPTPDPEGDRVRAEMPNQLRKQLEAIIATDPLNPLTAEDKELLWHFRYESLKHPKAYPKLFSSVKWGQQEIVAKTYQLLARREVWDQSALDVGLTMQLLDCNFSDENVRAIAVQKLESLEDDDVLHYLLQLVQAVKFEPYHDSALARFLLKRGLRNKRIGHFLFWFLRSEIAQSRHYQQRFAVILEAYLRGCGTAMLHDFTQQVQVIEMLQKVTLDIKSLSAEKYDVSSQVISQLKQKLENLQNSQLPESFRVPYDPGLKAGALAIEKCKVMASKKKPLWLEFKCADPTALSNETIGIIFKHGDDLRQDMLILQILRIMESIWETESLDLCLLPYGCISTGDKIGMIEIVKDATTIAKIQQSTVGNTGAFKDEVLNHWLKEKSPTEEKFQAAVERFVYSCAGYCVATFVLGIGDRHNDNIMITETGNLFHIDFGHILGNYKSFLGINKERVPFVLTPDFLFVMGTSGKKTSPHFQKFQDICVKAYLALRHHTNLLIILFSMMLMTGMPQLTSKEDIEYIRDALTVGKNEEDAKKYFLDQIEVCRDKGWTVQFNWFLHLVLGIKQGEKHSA
Please reply with the bare figure in nM and do not write the unit itself.

INSERT INTO results (smiles_str, value_measured) VALUES
  ('O=c1c2c(Cl)ccn2nc([C@@H]2CSCN2c2ncnc3[nH]cnc23)n1-c1ccccc1', 26),
  ('Nc1nc2c(c(N3CCC[C@H]3c3nn4ccc(F)c4c(=O)n3-c3ccccc3)n1)C(=O)CCN2', 29);

Now take the following compound into account.
IC50 for `O=c1c2c(Cl)ccn2nc([C@@H]2CCCN2c2ncnc3[nH]cnc23)n1-c1ccccn1` is 34

###

# Lookup of reported log10 IC50 keyed by entry
target: p110β/p85α (Homo sapiens, UniProt P42338); test: Transcreener KINASE Assay, kinase inhibition of p110β/p85α; details: read-out: PI3Kβ IC50
Sequence (P42338 whole entry): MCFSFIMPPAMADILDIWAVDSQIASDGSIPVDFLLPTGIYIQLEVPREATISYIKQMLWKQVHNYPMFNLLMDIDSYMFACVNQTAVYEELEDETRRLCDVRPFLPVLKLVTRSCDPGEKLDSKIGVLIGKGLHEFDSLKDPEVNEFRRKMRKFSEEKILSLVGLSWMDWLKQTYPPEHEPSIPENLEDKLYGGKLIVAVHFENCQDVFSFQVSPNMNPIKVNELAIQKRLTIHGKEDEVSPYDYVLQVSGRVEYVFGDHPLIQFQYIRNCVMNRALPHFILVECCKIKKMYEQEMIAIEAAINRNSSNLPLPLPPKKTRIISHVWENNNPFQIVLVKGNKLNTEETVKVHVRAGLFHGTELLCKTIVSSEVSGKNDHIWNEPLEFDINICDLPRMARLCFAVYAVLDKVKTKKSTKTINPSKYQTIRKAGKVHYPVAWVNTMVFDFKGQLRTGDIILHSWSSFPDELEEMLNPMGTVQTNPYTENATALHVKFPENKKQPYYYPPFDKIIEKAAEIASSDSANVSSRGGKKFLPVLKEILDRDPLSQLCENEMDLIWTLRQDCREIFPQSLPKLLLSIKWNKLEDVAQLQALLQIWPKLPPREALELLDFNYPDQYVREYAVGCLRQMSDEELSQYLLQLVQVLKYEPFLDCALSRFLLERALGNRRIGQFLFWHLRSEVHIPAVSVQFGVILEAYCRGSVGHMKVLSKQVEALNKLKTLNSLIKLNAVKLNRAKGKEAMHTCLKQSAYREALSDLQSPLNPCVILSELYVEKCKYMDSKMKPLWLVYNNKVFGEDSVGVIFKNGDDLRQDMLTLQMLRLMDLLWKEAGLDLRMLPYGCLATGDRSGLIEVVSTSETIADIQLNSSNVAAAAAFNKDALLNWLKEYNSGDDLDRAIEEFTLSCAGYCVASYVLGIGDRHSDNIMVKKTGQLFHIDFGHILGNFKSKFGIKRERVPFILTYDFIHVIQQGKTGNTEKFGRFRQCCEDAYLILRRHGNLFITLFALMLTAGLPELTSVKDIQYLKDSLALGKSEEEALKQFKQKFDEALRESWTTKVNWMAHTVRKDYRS
Sequence (P27986 2-724 partner): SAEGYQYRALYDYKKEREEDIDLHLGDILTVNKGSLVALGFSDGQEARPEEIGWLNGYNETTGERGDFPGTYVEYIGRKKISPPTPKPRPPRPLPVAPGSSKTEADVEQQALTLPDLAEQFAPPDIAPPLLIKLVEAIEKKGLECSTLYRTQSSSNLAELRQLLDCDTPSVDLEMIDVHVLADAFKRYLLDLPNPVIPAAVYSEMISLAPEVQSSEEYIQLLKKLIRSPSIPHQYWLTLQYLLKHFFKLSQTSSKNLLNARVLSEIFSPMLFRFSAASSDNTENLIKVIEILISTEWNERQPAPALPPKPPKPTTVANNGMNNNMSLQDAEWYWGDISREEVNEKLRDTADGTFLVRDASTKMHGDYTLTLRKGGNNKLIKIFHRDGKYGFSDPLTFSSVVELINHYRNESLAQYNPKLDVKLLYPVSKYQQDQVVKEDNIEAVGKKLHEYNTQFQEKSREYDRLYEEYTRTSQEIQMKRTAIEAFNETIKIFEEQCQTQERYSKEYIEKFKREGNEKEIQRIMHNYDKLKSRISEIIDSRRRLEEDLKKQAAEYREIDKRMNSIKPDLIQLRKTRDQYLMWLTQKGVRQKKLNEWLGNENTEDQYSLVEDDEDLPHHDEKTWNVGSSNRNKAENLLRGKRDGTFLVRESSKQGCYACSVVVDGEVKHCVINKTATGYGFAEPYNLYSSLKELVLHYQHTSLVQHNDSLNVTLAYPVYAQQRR
Hi team, quick reminder: these entries are log10 of IC50 (nM).

Check out these entries, answers already filled in.
INSERT INTO assay_data (compound, experimental_target, value_measured) VALUES
  ('Cc1nc(N)nc(N2CCC2c2nn3ccc(Cl)c3c(=O)n2-c2ccccn2)c1C#N (stereo not shown) [Compound 475]', 'p110β/p85α (Homo sapiens, UniProt P42338)', 1.92),
  ('CC(=O)c1cnc(N)nc1N1C[C@H](C)[C@H]1c1nn2ccc(F)c2c(=O)n1-c1ccccc1 [Compound 324]', 'p110β/p85α (Homo sapiens, UniProt P42338)', 2.66),
  ('CC(Nc1ncnc(N)c1C#N)c1cn2ccc(Cl)c2c(=O)n1-c1cc(F)cc(F)c1 (stereo not shown) [Compound 81]', 'p110β/p85α (Homo sapiens, UniProt P42338)', 2.34);

log10 IC50 for O=c1c2c(Cl)ccn2nc([C@@H]2CCN2c2ncnc3[nH]cc(C#CCO)c23)n1-c1ccccc1 [Compound 165] is 2.60

log10 IC50 for N#Cc1cnc(N)nc1N1C[C@@H](F)C[C@H]1c1nn2ccc(Cl)c2c(=O)n1-c1ccccc1 [Compound 229] is 2.42

log10 IC50 for COc1ncc(-c2c[nH]c3ncnc(N4CC[C@H]4c4nn5ccc(F)c5c(=O)n4-c4ccccc4)c23)cn1 [Compound 181] is 1.36

log10 IC50 for C/C(=N\O)c1c[nH]c2ncnc(N3CCC[C@H]3c3nn4ccc(Cl)c4c(=O)n3-c3ccccc3)c12 [Compound 306] is 1.20

log10 IC50 for Cc1nc(N)nc(N2CC[C@H]2c2nn3ccc(Cl)c3c(=O)n2-c2ccccc2)c1C#N [Compound 283] is 2.14

log10 IC50 for N#Cc1c[nH]c2ncnc(N3CCC[C@H]3c3nn4ccc(Cl)c4c(=O)n3CC3CC3)c12 [Compound 257] is 1.90

log10 IC50 for O=c1c2c(Cl)ccn2nc([C@@H]2CCCN2c2ncnc3[nH]cnc23)n1-c1ccc(F)cc1 [Compound 41] is 1.82

log10 IC50 for Cc1nc(N)nc(N2C[C@H](C)[C@H]2c2nn3ccc(C#N)c3c(=O)n2-c2ccccc2)c1C#N [Compound 499] is 1.92

log10 IC50 for CC(=O)c1cnc(N)nc1N1CC[C@H]1c1nn2ccc(Cl)c2c(=O)n1-c1ccccc1 [Compound 299] is 2.81

log10 IC50 for O=C1C[C@@H](c2nn3ccc(Cl)c3c(=O)n2-c2ccccc2)N(c2ncnc3[nH]cnc23)C1 [Compound 381] is 2.30
